Target: T1, Aurora kinase A (AurA) (Homo sapiens, UniProt O14965)
T1 chain: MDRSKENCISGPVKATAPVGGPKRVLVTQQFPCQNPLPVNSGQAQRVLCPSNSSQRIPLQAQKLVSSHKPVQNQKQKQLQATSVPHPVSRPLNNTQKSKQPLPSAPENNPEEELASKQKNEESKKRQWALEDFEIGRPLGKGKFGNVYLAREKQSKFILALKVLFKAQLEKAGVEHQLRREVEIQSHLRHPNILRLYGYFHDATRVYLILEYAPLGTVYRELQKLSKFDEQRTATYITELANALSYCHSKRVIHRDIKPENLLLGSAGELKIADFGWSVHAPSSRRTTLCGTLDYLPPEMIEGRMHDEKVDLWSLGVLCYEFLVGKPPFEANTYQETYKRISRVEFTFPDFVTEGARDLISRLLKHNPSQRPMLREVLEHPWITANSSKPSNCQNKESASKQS
Assay: SPR
measurementType: Kd (µM)

binder	measurementType	numericResult
CDGGSGGGSAELAALEAELAALEGGGGGGGKLEYLKWKLWPLKGW [Bip-3]	Kd	13.7
